- tgt: T1, mouse IL-17A (mouse, UniProt Q62386 26-158, limits assumed)
- T1 construct: Purified recombinant protein in SPR; also called MuIL-17A; murine IL-17A
- T1 sequence (looked up): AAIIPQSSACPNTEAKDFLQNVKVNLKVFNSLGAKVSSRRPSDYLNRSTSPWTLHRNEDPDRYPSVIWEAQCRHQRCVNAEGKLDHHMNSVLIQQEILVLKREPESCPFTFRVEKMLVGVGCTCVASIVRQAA
- measurement.protocol: SPR (Biacore 3000), antibody captured by anti-Fc, antigen in solution;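 also: purified recombinant IL-17 antigens flowed over captured antibodies in HBS-EP buffer, global Langmuir one-to-one fit of association and dissociation phases, KD derived from koff over kon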
I'd appreciate it if you could supply koff values for the items below.
Give bare numbers, in s⁻¹.

Would you please look over these solved cases?
INSERT INTO results (binder, reported_endpoint, endpoint_unit, result_number) VALUES
  ('IL17-h5C5.8 (antibody, V domains shown, IgG; constant regions not specified; also called h5C5.8 (VH.1-Vk.1a)) VH: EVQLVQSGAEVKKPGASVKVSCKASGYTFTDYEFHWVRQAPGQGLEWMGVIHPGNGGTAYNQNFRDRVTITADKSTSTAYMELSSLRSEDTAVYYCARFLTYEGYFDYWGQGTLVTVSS VL: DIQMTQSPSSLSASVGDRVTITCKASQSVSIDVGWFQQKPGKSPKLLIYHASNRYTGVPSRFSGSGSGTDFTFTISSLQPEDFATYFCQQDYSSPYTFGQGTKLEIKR', 'koff', 's⁻¹', 0.000531),
  ('IL17-h10F7.6 (antibody, V domains shown, IgG; constant regions not specified; also called h10F7.6 (VH.1a-Vk.1a)) VH: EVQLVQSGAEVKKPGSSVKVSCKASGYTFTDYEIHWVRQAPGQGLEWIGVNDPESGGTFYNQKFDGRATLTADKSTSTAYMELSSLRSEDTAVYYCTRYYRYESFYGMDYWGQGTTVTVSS VL: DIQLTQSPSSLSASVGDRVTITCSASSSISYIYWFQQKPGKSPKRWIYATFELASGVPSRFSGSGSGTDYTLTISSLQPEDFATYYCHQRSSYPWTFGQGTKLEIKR', 'koff', 's⁻¹', 0.000384);

We next turn to a different binder, shown below.
I am curious: what koff value has been reported for IL17-h5C5.14 (antibody, V domains shown, IgG; constant regions not specified; also called h5C5.14 (VH.1-Vk.3a)) VH: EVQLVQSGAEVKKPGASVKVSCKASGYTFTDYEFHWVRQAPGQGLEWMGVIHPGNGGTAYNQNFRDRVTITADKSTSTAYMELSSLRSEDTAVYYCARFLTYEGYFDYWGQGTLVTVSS VL: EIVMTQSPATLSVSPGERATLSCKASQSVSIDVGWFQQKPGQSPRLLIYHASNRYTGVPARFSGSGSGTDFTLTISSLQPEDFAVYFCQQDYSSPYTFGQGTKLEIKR ?
0.000494

These measurements were taken from patent US20140348834A1.
